Would you kindly list Hill slope of Ca2+ concentration-response curve for each of these compounds?
system: hTRPA1 (Homo sapiens, UniProt O75762)
Construct: expressed in transfected cells
Sequence (O75762 whole entry): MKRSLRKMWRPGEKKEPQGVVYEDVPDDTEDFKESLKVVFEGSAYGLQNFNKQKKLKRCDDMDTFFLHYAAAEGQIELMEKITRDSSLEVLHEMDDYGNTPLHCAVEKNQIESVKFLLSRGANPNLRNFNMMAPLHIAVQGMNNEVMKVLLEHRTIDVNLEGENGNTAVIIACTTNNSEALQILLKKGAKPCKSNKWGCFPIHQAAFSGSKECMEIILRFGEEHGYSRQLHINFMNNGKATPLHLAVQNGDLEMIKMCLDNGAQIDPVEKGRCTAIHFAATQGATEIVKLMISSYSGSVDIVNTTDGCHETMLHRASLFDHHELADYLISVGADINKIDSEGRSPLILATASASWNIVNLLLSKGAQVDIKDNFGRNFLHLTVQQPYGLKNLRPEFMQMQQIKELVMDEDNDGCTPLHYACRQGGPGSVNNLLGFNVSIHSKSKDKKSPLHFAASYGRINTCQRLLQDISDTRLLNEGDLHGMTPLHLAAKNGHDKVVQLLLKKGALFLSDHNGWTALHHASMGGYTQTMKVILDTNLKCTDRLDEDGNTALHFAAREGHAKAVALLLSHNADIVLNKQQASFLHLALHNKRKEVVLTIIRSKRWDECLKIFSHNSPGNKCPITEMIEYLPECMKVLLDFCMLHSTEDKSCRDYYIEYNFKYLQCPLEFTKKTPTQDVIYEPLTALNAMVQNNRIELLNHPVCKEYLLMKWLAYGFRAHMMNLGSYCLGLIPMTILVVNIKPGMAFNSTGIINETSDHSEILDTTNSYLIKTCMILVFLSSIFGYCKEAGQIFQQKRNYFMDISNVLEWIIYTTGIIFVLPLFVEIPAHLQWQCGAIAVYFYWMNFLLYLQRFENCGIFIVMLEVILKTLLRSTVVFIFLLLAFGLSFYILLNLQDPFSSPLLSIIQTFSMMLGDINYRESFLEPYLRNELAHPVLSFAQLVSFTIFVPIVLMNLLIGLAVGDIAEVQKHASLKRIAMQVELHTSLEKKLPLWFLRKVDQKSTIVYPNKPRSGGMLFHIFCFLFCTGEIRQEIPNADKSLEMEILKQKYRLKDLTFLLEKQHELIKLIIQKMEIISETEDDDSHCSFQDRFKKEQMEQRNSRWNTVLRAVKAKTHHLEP
test-description: Cytosolic Ca2+ measurement with Fluo-4 AM on a fluorescence plate reader (FlexStation III), ΔRFU dose-response
Assay type: cell-based
test-parameters: hTRPA1-Flp-In 293 stable cells, Fluo-4 AM, n = 7
Answers are plain numbers.

C=CCN=C=S [AITC, allyl isothiocyanate, reference compound] ... 1.6
C=CCc1ccc(OC)c(OC)c1 ... 1.4
C=CCc1ccc(OC)cc1 ... 1.7
C=C(C)[C@@H]1CC=C(C)C(O)C1 (stereo partly drawn) ... 2.9
COc1ccc(/C=C/C=O)cc1 [trans-p-methoxycinnamaldehyde] ... 2.2

Now consider a different compound.
Query: If you can, please state the reported Hill slope of Ca2+ concentration-response curve value of `COc1ccc(C=O)cc1` .
Reply: 2.0
